# system-tested: C. elegans Slo-1a (Caenorhabditis elegans, UniProt Q95V25)
# Sequence (Q95V25 whole entry): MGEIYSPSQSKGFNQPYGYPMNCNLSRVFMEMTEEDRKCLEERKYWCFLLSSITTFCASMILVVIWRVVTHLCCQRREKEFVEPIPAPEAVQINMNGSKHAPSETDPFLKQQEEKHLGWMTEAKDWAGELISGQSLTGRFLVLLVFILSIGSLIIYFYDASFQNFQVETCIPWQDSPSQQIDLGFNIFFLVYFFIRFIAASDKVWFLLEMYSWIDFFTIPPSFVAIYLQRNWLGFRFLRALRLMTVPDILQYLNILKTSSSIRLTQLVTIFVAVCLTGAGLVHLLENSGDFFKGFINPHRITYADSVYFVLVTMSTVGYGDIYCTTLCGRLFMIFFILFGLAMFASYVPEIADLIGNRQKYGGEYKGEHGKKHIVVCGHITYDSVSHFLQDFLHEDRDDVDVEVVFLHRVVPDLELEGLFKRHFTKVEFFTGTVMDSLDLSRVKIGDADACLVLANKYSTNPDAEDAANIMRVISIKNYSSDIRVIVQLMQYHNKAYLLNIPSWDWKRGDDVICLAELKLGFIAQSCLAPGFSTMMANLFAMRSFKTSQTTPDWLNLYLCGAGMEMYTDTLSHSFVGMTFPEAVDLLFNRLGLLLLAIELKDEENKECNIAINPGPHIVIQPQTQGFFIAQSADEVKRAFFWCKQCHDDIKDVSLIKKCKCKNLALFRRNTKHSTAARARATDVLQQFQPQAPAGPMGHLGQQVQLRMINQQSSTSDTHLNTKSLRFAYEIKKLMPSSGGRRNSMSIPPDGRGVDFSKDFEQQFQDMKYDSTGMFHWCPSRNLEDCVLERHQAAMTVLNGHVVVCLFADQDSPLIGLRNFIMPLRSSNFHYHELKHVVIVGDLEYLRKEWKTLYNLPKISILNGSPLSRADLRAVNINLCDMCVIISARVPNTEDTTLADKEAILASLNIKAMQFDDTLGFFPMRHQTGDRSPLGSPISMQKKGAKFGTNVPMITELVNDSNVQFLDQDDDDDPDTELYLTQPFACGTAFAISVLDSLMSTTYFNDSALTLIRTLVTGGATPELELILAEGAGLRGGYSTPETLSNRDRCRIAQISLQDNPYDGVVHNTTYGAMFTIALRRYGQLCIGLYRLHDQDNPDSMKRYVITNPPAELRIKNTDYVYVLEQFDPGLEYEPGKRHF
# assay-method-text: In vitro assay 1: C. elegans Slo-1a, action at a recombinant C. elegans CHO cell line (membrane potential measurement)
Simple rule here: EC50 less than 20 nM is true (1), otherwise false (0).

Say whether its EC50 is strictly beneath 20 nM. Entry: CC(C)c1c(C(=O)N[C@H]2CCc3ccccc32)cnc2c(-c3c(F)cccc3F)c(C(F)F)nn12
true (1)

Here's an entry: Cc1nn2c(C(C)C)c(C(=O)N[C@H]3CCc4ccccc43)cnc2c1-c1cnn(C)c1 . Is its EC50 below 20 nM?
false (0)

Does this compound meet the criterion EC50 < 20 nM? Cc1nn2c(C(C)C)c(C(=O)N[C@H]3CCOc4ccccc43)cnc2c1-c1cccc(N(C)C)c1F
true (1)

Does the reported EC50 of CC(C)c1c(C(=O)N[C@H]2CCc3ccccc32)cnc2c(-c3ccccc3Cl)c(C(F)(F)F)nn12 stay below 20 nM?
false (0)

###

# assay-method-text: log P by HPLC on reversed phase columns (Method L0; [a] acidic, [b] neutral range)
For each entry below, report its chromatographic logP value.
Answers are plain numbers.

// worked examples, chromatographic logP included
• CC(C)c1c(C(=O)N[C@H]2CCc3ccccc32)cnc2c(-c3cccc(C(F)(F)F)c3)c(C(F)F)nn12 = 5.03
• Cc1nn2c(C(C)C)c(C(=O)N[C@H]3CCc4ccccc43)cnc2c1-c1c(Cl)cccc1Cl = 4.87

// next entry
// query chromatographic logP value for entry Cc1nn2c(C(C)C)c(C(=O)N[C@H]3CCOc4ccccc43)cnc2c1-c1ccc(Br)cc1
5.02

###

# system-tested: C. elegans Slo-1a (Caenorhabditis elegans, UniProt Q95V25)
# assay-method-text: In vitro assay 1: C. elegans Slo-1a, action at a recombinant C. elegans CHO cell line (membrane potential measurement)
property: EC50 (µM)
Numbers only, in µM.

* Cc1nn2c(C(C)C)c(C(=O)N[C@H]3CCc4ccccc43)cnc2c1-c1ccc(F)cc1 [Example 302] | 0.0126
* Cc1nn2c(C(C)C)c(C(=O)N[C@H]3CCc4ccccc43)cnc2c1-c1cccc(CN2CCCC2)c1 [Example 365] | 3.16
* Cc1nn2c(C(C)C)c(C(=O)N[C@H]3CCOc4ccccc43)cnc2c1-c1ccc2c(c1)N(C)CC2 [Example 238] | 0.158

// switching to the query compound
May I ask what EC50 has been recorded for CC(C)c1c(C(=O)N[C@H]2CCc3ccccc32)cnc2c(-c3cc(F)c(F)c(F)c3)c(C(F)(F)F)nn12 [Example 159] ?
1

###

# system-tested: C. elegans Slo-1a (Caenorhabditis elegans, UniProt Q95V25)
# assay-method-text: In vitro assay 1: C. elegans Slo-1a, action at a recombinant C. elegans CHO cell line (membrane potential measurement)
property: pEC50
One number for each entry, as −log10 of the molar value.

Known pEC50 results, listed for orientation:
- Cc1nn2c(C3CC3)c(C(=O)N[C@H]3CCc4ccccc43)cnc2c1-c1cccc(OC2CC2)c1 [Example 418]: 8.50
- Cc1nn2c(C3CC3)c(C(=O)N[C@H]3CCOc4ccccc43)cnc2c1-c1cc(Cl)cc(Cl)c1 [Example 469]: 7.80
- Cc1nn2c(C(C)C)c(C(=O)N[C@H]3CCc4ccccc43)cnc2c1-c1cccc(NS(C)(=O)=O)c1 [Example 308]: 5.80
- Cc1nn2c(C(C)C)c(C(=O)N[C@H]3CCc4ccccc43)cnc2c1-c1ccc(OC(F)(F)F)cc1 [Example 331]: 6.60

Tell me the measured pEC50 of Cc1nn2c(C(C)C)c(C(=O)N[C@H]3CCCc4ccccc43)cnc2c1-c1cccc(C(F)F)c1 [Example 145] , please.
7.50

###

# system-tested: UniProt:Q95V25
# assay-method-text: In vitro assay 1: C. elegans Slo-1a, action at a recombinant C. elegans CHO cell line (membrane potential measurement)
property: pEC50
Answers are plain numbers, as −log10 of the molar value.

• Cc1nn2c(C(C)C)c(C(=O)N[C@H]3CCOc4ccccc43)cnc2c1-c1cc(Cl)c(F)c(Cl)c1 = 7.90
• Cc1nn2c(C(C)C)c(C(=O)N[C@H]3CCCc4ccccc43)cnc2c1-c1cc(Cl)c(F)c(Cl)c1 = 7.90
• Cc1nn2c(C(C)C)c(C(=O)N[C@H]3CCOc4ccccc43)cnc2c1-c1cccc(N2CC(F)(F)C2)c1 = 7.90
• CC(C)c1c(C(=O)N[C@H]2CCc3ccccc32)cnc2c(-c3cccc(OC(F)(F)F)c3)c(C(F)F)nn12 = 8.20
• Cc1nn2c(C3CC3)c(C(=O)N[C@H]3CCOc4ccccc43)cnc2c1-c1cccc(F)c1 = 8.20

Working through the 2 compounds below one at a time, give pEC50 for each.
1. COc1cc(-c2c(C)nn3c(C(C)C)c(C(=O)N[C@H]4CCOc5ccccc54)cnc23)cc(OC)c1OC
2. Cc1nn2c(N3CCOCC3)c(C(=O)N[C@H]3CCOc4ccccc43)cnc2c1-c1cccc(Cl)c1F

6.80
8.90

Below are 4 compounds. Give each one its pEC50.
1. CC(C)c1c(C(=O)N[C@H]2CCOc3ccccc32)cnc2c(-c3cc(Cl)cc(C(F)(F)F)c3)c(C(F)(F)F)nn12
2. Cc1nn2c(C(C)C)c(C(=O)N[C@H]3CCCc4ccccc43)cnc2c1-c1ccc2c(c1)OC(F)(F)O2
3. COc1cccc(-c2c(C3CC3)nn3c(C(C)C)c(C(=O)N[C@H]4CCc5ccccc54)cnc23)c1
4. Cc1nn2c(C(C)C)c(C(=O)N[C@H]3CCc4ccccc43)cnc2c1-c1cc(Cl)c(F)c(Cl)c1

7.90
7.40
6.50
8.00

Value lookup for pEC50; key = Cc1nn2c(C(C)C)c(C(=O)N[C@H]3CCOc4ccccc43)cnc2c1-c1c(Cl)ccc(F)c1F
8.80

###

# assay-method-text: log P by HPLC on reversed phase columns (Method L0; [a] acidic, [b] neutral range)
Hi there, I'd appreciate the recorded chromatographic logP for every entry that follows.
Numbers only.

// solved cases for chromatographic logP follow
* Cc1nn2c(C(C)C)c(C(=O)N[C@H]3CCc4ccccc43)cnc2c1-c1ccc(C#N)c(C(F)(F)F)c1 | 4.97
* Cc1nn2c(C(C)C)c(C(=O)N[C@H]3CCc4ccccc43)cnc2c1-c1cc(F)cc(F)c1 | 5.02
* Cc1nn2c(C(C)C)c(C(=O)N[C@H]3CCOc4ccccc43)cnc2c1-c1cccc(Cl)c1 | 4.87
* CCOc1ccc(-c2c(C)nn3c(C(C)C)c(C(=O)N[C@H]4CCc5ccccc54)cnc23)cc1 | 4.87

For Cc1nn2c(C(C)C)c(C(=O)N[C@H]3CCOc4ccccc43)cnc2c1-c1ccc(F)c(Cl)c1 , what is its reported chromatographic logP?
5.01

###

# system-tested: C. elegans Slo-1a (Caenorhabditis elegans)
# assay-method-text: In vitro assay 1: C. elegans Slo-1a, action at a recombinant C. elegans CHO cell line (membrane potential measurement)
Please assign not met whenever EC50 is at or above 8 nM, and met whenever it is below.

Take the compound CCCOCc1cccc(-c2c(C)nn3c(C(C)C)c(C(=O)N[C@H]4CCc5ccccc54)cnc23)c1 and say whether its EC50 is less than 8 nM.
not met

###

# system-tested: C. elegans Slo-1a (Caenorhabditis elegans, UniProt Q95V25)
# assay-method-text: In vitro assay 1: C. elegans Slo-1a, action at a recombinant C. elegans CHO cell line (membrane potential measurement)
property: EC50 (nM)
Numbers only, in nM.

* Cc1nn2c(C(C)C)c(C(=O)N[C@H]3CCc4ccccc43)cnc2c1-c1ccc(C(F)(F)F)cc1 | 15.8
* CC(C)c1c(C(=O)N[C@H]2CCc3ccccc32)cnc2c(-c3cccc(C(F)(F)F)c3)c(C(F)F)nn12 | 10
* Cc1nn2c(C(C)C)c(C(=O)N[C@H]3CCOc4ccccc43)cnc2c1-c1cnccc1Cl | 15.8
* Cc1nn2c(C(C)C)c(C(=O)N[C@H]3CCc4ccccc43)cnc2c1-c1cccc(CN2CCOCC2)c1 | 398
* Cc1nn2c(C(C)C)c(C(=O)N[C@H]3CCc4ccccc43)cnc2c1-c1cnn(CC(F)F)c1 | 15.8
* Cc1nn2c(C(C)C)c(C(=O)N[C@H]3CCc4ccccc43)cnc2c1-c1cnn(CC2CC2)c1 | 7.94

Could you report EC50 for every entry in the following list?
1. Cc1nc2c(-c3cccc(Cl)c3Cl)c(C)nn2c(C)c1C(=O)N[C@H]1CCOc2ccccc21
2. Cc1nn2c(C(C)C)c(C(=O)N[C@H]3CCOc4ccccc43)cnc2c1-c1ccc(F)c(F)c1

1. 158
2. 7.94

Give one value of EC50 per listed compound.
1. CC(C)c1c(C(=O)N[C@H]2CCc3ccccc32)cnc2c(-c3cncc(Cl)c3)c(C(F)(F)F)nn12
2. Cc1nn2c(C(C)C)c(C(=O)N[C@H]3CCCc4ccccc43)cnc2c1-c1cccc(Cl)c1
3. Cc1nn2c(N(C)C)c(C(=O)N[C@H]3CCOc4ccccc43)cnc2c1-c1cccc(Cl)c1Cl
4. Cc1nn2c(C(C)C)c(C(=O)N[C@H]3CCc4ccccc43)cnc2c1-c1cccc(N2CCCCC2)c1
5. Cc1nn2c(C3CC3)c(C(=O)N[C@H]3CCc4ccccc43)cnc2c1-c1c(F)ccc(F)c1F

631
50.1
1
158
1.58

State recorded EC50 for all listed compounds.
1. Cc1nn2c(C(C)C)c(C(=O)N[C@H]3CCc4ccccc43)cnc2c1-c1cccnc1
2. Cc1nn2c(C(C)C)c(C(=O)N[C@H]3CCOc4ccccc43)cnc2c1-c1cc(Cl)cc(Cl)c1Cl
3. Cc1nn2c(C(C)C)c(C(=O)N[C@H]3CCc4ccccc43)cnc2c1-c1cc(Cl)cc(C(F)(F)F)c1

[1260, 1.26, 15.8]

Need EC50 for each of these compounds.
1. Cc1nn2c(C(C)C)c(C(=O)N[C@H]3CCOc4ccccc43)cnc2c1-c1cccc2c1OC(F)(F)O2
2. Cc1nn2c(C(C)C)c(C(=O)N[C@H]3CCOc4ccccc43)cnc2c1-c1c(F)cccc1Cl
3. Cc1nn2c(C(C)C)c(C(=O)N[C@H]3CCc4ccccc43)cnc2c1-c1cc(F)cc(F)c1

6.31
3.98
39.8
